Can you tell me folding enthalpy for the items I'm about to list?
- Method Summary: folding enthalpy; higher = less favourable; fluorescence melt of hairpins on a sequencing array, two-state fit
- Test Context: sodium 0.088 M
Respond with the bare value in kcal/mol.

### Prompt Can you share its folding enthalpy? I mean this sequence: GACTATGAAAATAGTC ((((((....))))))
### Response -32.8

### Prompt Can you share its folding enthalpy? I mean this sequence: TTACTGAAAAGTAA (((((....)))))
### Response -8.68

### Prompt Can you share its folding enthalpy? I mean this sequence: CGCGACCGGAAACGGGCG (((..(((....))))))
### Response -11.7

### Prompt Can you share its folding enthalpy? I mean this sequence: GAGCACGAAAGTGCACTC ((((((....)))..)))
### Response -11.9

### Prompt Can you share its folding enthalpy? I mean this sequence: GTCTTCGGAAACGAAGGC (.(((((....))))).)
### Response -32.9

### Prompt Can you share its folding enthalpy? I mean this sequence: GTTCTACGAAAGTATAAC (((.(((....))).)))
### Response -24
